# % activity annotations
Molecular target: Fms (h) (Homo sapiens, UniProt P07333)
Experiment: Kinase Profiling Assay
Format: biochemical
Settings: 100 μM
Protocol: Every kinase activity measurement was conducted in duplicate. Specifically, in these assays, a positively charged substrate is phosphorylated with a radiolabeled phosphate group from an ATP if the kinase is not inhibited by an inhibitor peptide. The positively charged substrate then is attracted to a negatively charged filter membrane, quantified with a scintillation counter, and compared to a 100% activity control. […]
Return type: number; implicit unit %.

Solved entries:
record_sequence="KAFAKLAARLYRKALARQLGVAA [MMI-0400]" reading_unit=% test_value=37
record_sequence="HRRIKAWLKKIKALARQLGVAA (Mammalian) [MMI-0500]" reading_unit=% test_value=14

# evaluate next
Given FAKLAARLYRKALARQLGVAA [MMI-0300] , state its recorded % activity.
45
